# Assay Protocol: Pharmacokinetic study in CD-1 male mice after oral and intravenous administration
# Format: in vivo
# Condition Notes: mouse, oral administration, 2.16 mg/kg, plasma, read-out: Time to peak Tmax
Measure: Tmax (min)

INSERT INTO assay_data (mol_smiles, unit_of_measurement, reported) VALUES
  ('CNS(=O)(=O)Nc1nccc(Cc2c(C)c3c(F)cc(Oc4ncccn4)cc3oc2=O)c1F', 'min', 37.8);

###

# Assay Protocol: Pharmacokinetic study in CD-1 male mice after oral and intravenous administration
# Assay type: in vivo
# Condition Notes: mouse, oral administration, 2.16 mg/kg, plasma, read-out: Area under the plasma concentration-time curve AUC0-last
# Experimental: Pharmacokinetic study of the test compound in CD-1 male mice after oral and intravenous injection The test compound was mixed with 10% dimethyl sulfoxide/30% PEG-400/60% aqueous solution, vortexed and sonicated to prepare a 0.20 mg/mL clear solution. The clear solution was filtered through a microporous filter for later use. […] The drug concentration was analyzed by LC-MS/MS method, and the pharmacokinetic parameters were calculated using Phoenix WinNonlin software (Pharsight, USA).
Measure: AUC(0-t) (µM·h)

INSERT INTO results (compound, measure, unit_of_measurement, reported) VALUES
  ('CNS(=O)(=O)Nc1nccc(Cc2c(C)c3c(F)cc(Oc4ncccn4)cc3oc2=O)c1F [Compound 3]', 'AUC(0-t)', 'µM·h', 85.8);
